test system: PC-3M; assay: Anticancer activity in human PC-3M cells expressing PTB/GFP fusion protein assessed as perinucleolar compartment disassembly and measured after 24 hrs by Hoechst 33342 staining based microscopic method; format: functional, cell-based; details: read-out: pIC50 (converted)
Readout kind: IC50 (nM)
Your answer should be a plain number; it is taken to be in nM.

Examples with their reported IC50 follow.
CO[C@H]1CC[C@H](n2cnc3c(c(-c4ccccc4)c(-c4ccccc4)n3Cc3ccccc3)c2=N)CC1
251
N=c1c2c(-c3ccccc3)c(-c3ccccc3)n(Cc3ccccc3)c2ncn1[C@@H]1CCCC[C@H]1O (relative stereo)
501
N=c1c2c(-c3ccccc3)c(-c3ccccc3)n(Cc3ccc(OC(F)(F)F)cc3)c2ncn1[C@H]1CC[C@H](O)CC1
631
N=c1c2c(-c3ccccc3)c(-c3ccccc3)n(Cc3ccccc3)c2ncn1C1CCN(Cc2ccccc2)CC1
5010

IC50 reported for this molecule `COCCn1cnc2c(c(-c3ccccc3)c(-c3ccccc3)n2Cc2ccccc2)c1=N` : 9330

IC50 reported for this molecule `N=c1c2c(-c3ccccc3)c(-c3ccccc3)n(CC3CCCCC3)c2ncn1CCCO` : 26900

---

system: PC-3M; assay: Anticancer activity in human PC-3M cells expressing PTB/GFP fusion protein assessed as perinucleolar compartment disassembly and measured after 24 hrs by Hoechst 33342 staining based microscopic method; type: functional, cell-based; conditions: read-out: pIC50 (converted)
Friendly reminder: IC50 below 2 µM is 1 (yes), at or above is 0 (no).

The examples below pair each entry with its known result.
N=c1c2c(-c3ccccc3)c(-c3ccccc3)n(CC3CCCCC3)c2ncn1[C@H]1CC[C@H](O)CC1
0 (no)
N=c1c2c(-c3ccccc3)c(-c3ccccc3)n(Cc3ccccc3)c2ncn1CC1CCOCC1
0 (no)
N=c1c2c(-c3ccccc3)c(-c3ccccc3)n(Cc3ccccc3)c2ncn1[C@H]1CC[C@H](O)CC1
1 (yes)
N=c1c2c(-c3ccccc3)c(-c3ccccc3)n(CCc3ccccc3)c2ncn1[C@H]1CC[C@H](O)CC1
1 (yes)

Request: Field: below-cutoff. Rule: recorded IC50 strictly less than 2 µM. Subject: `CO[C@H]1CC[C@H](n2cnc3c(c(-c4ccccc4)c(-c4ccccc4)n3Cc3ccc(OC(F)(F)F)cc3)c2=N)CC1`
Result: 1 (yes)

Request: Field: below-cutoff. Rule: recorded IC50 strictly less than 2 µM. Subject: `COc1ccc(Cn2c(-c3ccccc3)c(-c3ccccc3)c3c(=N)n(CCCO)cnc32)cc1`
Result: 0 (no)

Request: Field: below-cutoff. Rule: recorded IC50 strictly less than 2 µM. Subject: `N=c1c2c(-c3ccccc3)c(-c3ccccc3)n(Cc3ccccc3)c2ncn1[C@H]1CC[C@@H](O)CC1`
Result: 1 (yes)

---

assay: Permeability of the compound at pH 7.4 incubated for 30 mins by UV plate reader based PAMPA assay; settings: pampa, pH 7.4, 0.5 h
Reported permeability values for a set of compounds

Examples with their reported permeability follow.
CN(C)CCCn1cnc2c(c(-c3ccccc3)c(-c3ccccc3)n2CCc2ccccc2)c1=N
294.4 10^-6 cm/s
N=c1c2c(-c3ccccc3)c(-c3ccccc3)n(Cc3ccccc3)c2ncn1C1CCOCC1
> 1000 10^-6 cm/s
COc1ccc(-c2c(-c3ccc(OC)cc3)n(Cc3ccccc3)c3ncn(CC4CCOC4)c(=N)c23)cc1 (stereo unspecified)
> 1000 10^-6 cm/s
N=c1c2c(-c3ccccc3)c(-c3ccccc3)n(Cc3ccc(OC(F)(F)F)cc3)c2ncn1C1CCOCC1
> 1000 10^-6 cm/s
N=c1c2c(-c3ccccc3)c(-c3ccccc3)n(Cc3ccccc3)c2ncn1CCO
> 1000 10^-6 cm/s
N=c1c2c(-c3ccccc3)c(-c3ccccc3)n(CCc3ccccc3)c2ncn1CCO
> 1000 10^-6 cm/s

permeability reported for this compound N=c1c2c(-c3ccccc3)c(-c3ccccc3)n(Cc3ccccc3)c2ncn1[C@@H]1CCCC[C@H]1O (relative stereo) : > 1000 10^-6 cm/s

permeability reported for this compound `COc1ccc(-c2c(-c3ccc(OC)cc3)n(Cc3ccccc3)c3ncn(C4CCOCC4)c(=N)c23)cc1` : > 1000 10^-6 cm/s

permeability reported for this compound `N=c1c2c(-c3ccccc3)c(-c3ccccc3)n(Cc3ccc(OC(F)(F)F)cc3)c2ncn1[C@H]1CC[C@H](O)CC1` : 1246.89 10^-6 cm/s

permeability reported for this compound `N=c1c2c(-c3ccccc3)c(-c3ccccc3)n(Cc3ccccc3)c2ncn1CCCCO` : > 1000 10^-6 cm/s
